Parameter pIC50: see the listing below.
Test system: T47D
Experimental Details: Antiproliferative activity against human T47D cells after 72 hrs by EZ-CYTOX reagent based assay
Assay type: functional, cell-based
Please report pIC50 as the negative decimal logarithm of the molar concentration, giving only the number.

Use these answered entries as a reference point.
# Compound, Experimental Target, pIC50
measured = [
    ("O=C1c2ccccc2-c2nc(-c3ccccc3O)cc(-c3ccccc3)c21", "T47D", 4.98),
    ("Oc1ccc(-c2cc(-c3cccc(O)c3)c3c(n2)-c2ccccc2C3O)cc1 (stereo not given)", "T47D", 5.77),
]

// next entry
Record for O=C1c2ccccc2-c2nc(-c3ccc(O)cc3)cc(-c3cccc(O)c3)c21 under target or system T47D: pIC50 reported as 5.83

###

Parameter log10 of IC50: see the listing below.
Test system: T47D
Experimental Details: Antiproliferative activity against human T47D cells after 72 hrs by EZ-CYTOX reagent based assay
Format: functional, cell-based
Counter-ions that a name gives are not always drawn.
Quick note: numbers are log10 of IC50, with nM as the unit.

Use these answered entries as a reference point.
# Compound, Measured Parameter, Test Value
records = [
    ("COc1cccc2c1C(=O)c1c(O)c3c(c(O)c1C2=O)C[C@@](O)(C(=O)CO)C[C@@H]3O[C@H]1C[C@H](N)[C@H](O)[C@H](C)O1 [DOXORUBICIN HYDROCHLORIDE]", "log10 of IC50", 2.49),
    ("O=C1c2ccccc2-c2nc(-c3ccccc3)cc(-c3ccccc3)c21", "log10 of IC50", 3.81),
    ("Oc1ccc(-c2cc(-c3ccccc3O)c3c(n2)-c2ccccc2C3O)cc1 (configuration not stated)", "log10 of IC50", 3.63),
]

The compound listed as Oc1cccc(-c2cc(-c3cccc(O)c3)c3c(n2)-c2ccccc2C3O)c1 (configuration not stated) shows log10 of IC50 equal to 3.21

The compound listed as O=C1c2ccccc2-c2nc(-c3cccc(O)c3)cc(-c3ccccc3O)c21 shows log10 of IC50 equal to 2.04

The compound listed as O=C1c2ccccc2-c2nc(-c3ccc(O)cc3)cc(-c3ccccc3O)c21 shows log10 of IC50 equal to 2.62

The compound listed as O=C1c2ccccc2-c2nc(-c3cccc(O)c3)cc(-c3cccc(O)c3)c21 shows log10 of IC50 equal to 3.09

###

Test system: HCT-15
Experimental Details: Antiproliferative activity against human HCT15 cells after 72 hrs by EZ-CYTOX reagent based assay
Type: functional, cell-based
Test Settings: HCT-15, 72 h
Parameter IC50: see the listing below.

Use these answered entries as a reference point.
# Compound, Test Value
measured = [
    ("O=C1c2ccccc2-c2nc(-c3ccccc3O)cc(-c3ccccc3O)c21", "> 50 µM"),
    ("OC1c2ccccc2-c2nc(-c3ccccc3)cc(-c3ccccc3)c21 (stereo not given)", "> 50 µM"),
    ("O=C1c2ccccc2-c2nc(-c3cccc(O)c3)cc(-c3ccccc3)c21", "> 50 µM"),
    ("O=C1c2ccccc2-c2nc(-c3ccccc3O)cc(-c3ccc(O)cc3)c21", "> 50 µM"),
]

The compound listed as O=C1c2ccccc2-c2nc(-c3ccccc3O)cc(-c3ccccc3)c21 shows IC50 equal to > 50 µM

###

Experimental Target: DNA topoisomerase 1 (Homo sapiens)
Experimental Details: Inhibition of human topoisomerase 1 using supercoiled pBR322 plasmid DNA as substrate at 100 uM after 30 mins by agarose gel electrophoresis method relative to control
The threshold is inclusive: inhibition of exactly 6% counts as yes (1); values below receive no (0).

// below: answered compounds
# Compound, Classification
data = [
    ("O=C1c2ccccc2-c2nc(-c3ccccc3)cc(-c3ccccc3)c21", "no (0)"),
    ("O=C1c2ccccc2-c2nc(-c3ccccc3)cc(-c3ccc(O)cc3)c21", "yes (1)"),
    ("OC1c2ccccc2-c2nc(-c3ccccc3)cc(-c3ccccc3)c21 (centres undefined)", "yes (1)"),
    ("O=C1c2ccccc2-c2nc(-c3cccc(O)c3)cc(-c3ccccc3)c21", "no (0)"),
    ("Oc1ccc(-c2cc(-c3ccccc3O)c3c(n2)-c2ccccc2C3O)cc1 (centres undefined)", "yes (1)"),
]

Task item: Hello, I need to know if O=C1c2ccccc2-c2nc(-c3cccc(O)c3)cc(-c3ccccc3O)c21 has measured inhibition not below 6%. Thanks!
Reply: no (0)

Task item: Hello, I need to know if Oc1cccc(-c2cc(-c3cccc(O)c3)c3c(n2)-c2ccccc2C3O)c1 (centres undefined) has measured inhibition not below 6%. Thanks!
Reply: yes (1)

Task item: Hello, I need to know if O=C1c2ccccc2-c2nc(-c3ccccc3O)cc(-c3ccccc3)c21 has measured inhibition not below 6%. Thanks!
Reply: no (0)

###

Tested on: HCT-15
Experimental Details: Antiproliferative activity against human HCT15 cells after 72 hrs by EZ-CYTOX reagent based assay
Assay type: functional, cell-based
Test Settings: HCT-15, 72 h
pIC50: −log10 of the molar value.
Measured Parameter: pIC50

# Compound, pIC50
rows = [
    ("O=C1c2ccccc2-c2nc(-c3ccccc3)cc(-c3ccc(O)cc3)c21", "< 4.30"),
    ("Oc1ccc(-c2cc(-c3ccccc3)nc3c2C(O)c2ccccc2-3)cc1 (stereo not drawn)", "< 4.30"),
]

The compound listed as Oc1cccc(-c2cc(-c3ccccc3)c3c(n2)-c2ccccc2C3O)c1 (stereo not drawn) shows pIC50 equal to < 4.30

###

Experimental Target: DNA topoisomerase 2-alpha (Homo sapiens)
Experimental Details: Inhibition of human topoisomerase 2-alpha using supercoiled pBR322 plasmid DNA as substrate at 100 uM after 30 mins by agarose gel electrophoresis method relative to control
Measured Parameter: inhibition (%)
Give the value, in units of %, as a plain number.

# Compound, Experimental Target, inhibition, %
data = [
    ("O=C1c2ccccc2-c2nc(-c3ccc(O)cc3)cc(-c3ccccc3)c21", "DNA topoisomerase 2-alpha (Homo sapiens)", 23.3),
    ("O=C1c2ccccc2-c2nc(-c3ccccc3)cc(-c3ccc(O)cc3)c21", "DNA topoisomerase 2-alpha (Homo sapiens)", 63.3),
    ("O=C1c2ccccc2-c2nc(-c3ccc(O)cc3)cc(-c3cccc(O)c3)c21", "DNA topoisomerase 2-alpha (Homo sapiens)", 71.9),
    ("O=C1c2ccccc2-c2nc(-c3ccccc3O)cc(-c3cccc(O)c3)c21", "DNA topoisomerase 2-alpha (Homo sapiens)", 86.5),
    ("Oc1ccc(-c2cc(-c3cccc(O)c3)c3c(n2)-c2ccccc2C3O)cc1 (stereo not drawn)", "DNA topoisomerase 2-alpha (Homo sapiens)", 60.9),
]

The compound listed as O=C1c2ccccc2-c2nc(-c3ccc(O)cc3)cc(-c3ccc(O)cc3)c21 shows inhibition equal to 100

The compound listed as Oc1ccc(-c2cc(-c3ccccc3O)c3c(n2)-c2ccccc2C3O)cc1 (stereo not drawn) shows inhibition equal to 57.7

The compound listed as O=C1c2ccccc2-c2nc(-c3ccccc3O)cc(-c3ccccc3O)c21 shows inhibition equal to 32.8

The compound listed as O=C1c2ccccc2-c2nc(-c3ccccc3O)cc(-c3ccc(O)cc3)c21 shows inhibition equal to 5.2

The compound listed as O=C1c2ccccc2-c2nc(-c3ccc(O)cc3)cc(-c3ccccc3O)c21 shows inhibition equal to 72.8

The compound listed as Oc1ccc(-c2cc(-c3ccccc3)nc3c2C(O)c2ccccc2-3)cc1 (stereo not drawn) shows inhibition equal to 53.6

The compound listed as OC1c2ccccc2-c2nc(-c3ccccc3)cc(-c3ccccc3)c21 (stereo not drawn) shows inhibition equal to 21.5

The compound listed as O=C1c2ccccc2-c2nc(-c3ccccc3)cc(-c3ccccc3)c21 shows inhibition equal to 25

###

Experimental Target: DNA topoisomerase 1 (Homo sapiens)
Experimental Details: Inhibition of human topoisomerase 1 using supercoiled pBR322 plasmid DNA as substrate at 100 uM after 30 mins by agarose gel electrophoresis method relative to control
Measured Parameter: inhibition (%)
Give the value, in units of %, as a plain number.

The compound listed as Oc1ccc(-c2cc(-c3cccc(O)c3)c3c(n2)-c2ccccc2C3O)cc1 (stereo unspecified) shows inhibition equal to 71.9

The compound listed as O=C1c2ccccc2-c2nc(-c3ccc(O)cc3)cc(-c3ccccc3)c21 shows inhibition equal to 0

The compound listed as O=C1c2ccccc2-c2nc(-c3ccccc3O)cc(-c3ccc(O)cc3)c21 shows inhibition equal to 0

The compound listed as O=C1c2ccccc2-c2nc(-c3ccccc3O)cc(-c3ccccc3O)c21 shows inhibition equal to 0

The compound listed as Oc1ccc(-c2cc(-c3ccccc3)nc3c2C(O)c2ccccc2-3)cc1 (stereo unspecified) shows inhibition equal to 63.9

The compound listed as O=C1c2ccccc2-c2nc(-c3ccc(O)cc3)cc(-c3ccc(O)cc3)c21 shows inhibition equal to 0

###

Parameter inhibition: see the listing below.
Experimental Target: UniProt:P11388
Sequence (P11388 whole entry): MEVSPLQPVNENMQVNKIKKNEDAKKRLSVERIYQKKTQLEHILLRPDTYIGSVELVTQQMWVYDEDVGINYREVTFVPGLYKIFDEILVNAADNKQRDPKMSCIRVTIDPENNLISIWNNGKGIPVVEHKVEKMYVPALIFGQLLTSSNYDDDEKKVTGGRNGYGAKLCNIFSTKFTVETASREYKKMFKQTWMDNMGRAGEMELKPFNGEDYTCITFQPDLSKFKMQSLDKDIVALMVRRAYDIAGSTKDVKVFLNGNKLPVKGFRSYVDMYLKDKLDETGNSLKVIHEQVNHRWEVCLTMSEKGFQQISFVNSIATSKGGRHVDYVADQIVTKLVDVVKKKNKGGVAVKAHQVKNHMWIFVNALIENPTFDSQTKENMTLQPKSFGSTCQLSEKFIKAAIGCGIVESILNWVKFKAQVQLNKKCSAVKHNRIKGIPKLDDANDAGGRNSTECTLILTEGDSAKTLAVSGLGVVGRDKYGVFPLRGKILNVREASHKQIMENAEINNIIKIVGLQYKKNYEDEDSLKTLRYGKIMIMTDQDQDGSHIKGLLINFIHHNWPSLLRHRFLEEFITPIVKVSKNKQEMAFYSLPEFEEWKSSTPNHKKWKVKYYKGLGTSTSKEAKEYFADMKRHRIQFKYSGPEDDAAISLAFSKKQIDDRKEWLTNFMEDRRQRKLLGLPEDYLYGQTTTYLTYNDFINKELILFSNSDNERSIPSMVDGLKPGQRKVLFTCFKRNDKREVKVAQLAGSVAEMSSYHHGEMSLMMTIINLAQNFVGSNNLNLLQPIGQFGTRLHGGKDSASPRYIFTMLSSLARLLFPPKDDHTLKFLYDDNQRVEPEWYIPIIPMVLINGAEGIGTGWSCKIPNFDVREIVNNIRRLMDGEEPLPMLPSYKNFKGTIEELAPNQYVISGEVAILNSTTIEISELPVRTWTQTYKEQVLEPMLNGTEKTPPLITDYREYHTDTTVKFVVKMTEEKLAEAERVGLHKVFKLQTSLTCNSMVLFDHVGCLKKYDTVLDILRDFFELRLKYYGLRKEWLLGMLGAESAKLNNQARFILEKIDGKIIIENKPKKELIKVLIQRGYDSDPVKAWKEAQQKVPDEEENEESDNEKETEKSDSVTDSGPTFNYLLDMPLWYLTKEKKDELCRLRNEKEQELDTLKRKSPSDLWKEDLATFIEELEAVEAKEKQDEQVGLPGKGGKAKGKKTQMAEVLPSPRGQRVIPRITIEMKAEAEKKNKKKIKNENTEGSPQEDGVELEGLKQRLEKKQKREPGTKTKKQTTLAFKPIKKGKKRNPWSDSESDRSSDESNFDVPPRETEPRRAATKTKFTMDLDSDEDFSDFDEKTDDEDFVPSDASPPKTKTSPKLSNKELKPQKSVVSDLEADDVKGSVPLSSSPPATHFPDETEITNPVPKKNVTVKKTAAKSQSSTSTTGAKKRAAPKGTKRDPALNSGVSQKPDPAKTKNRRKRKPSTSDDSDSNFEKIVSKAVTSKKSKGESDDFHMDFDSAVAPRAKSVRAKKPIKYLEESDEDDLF
Experimental Details: Inhibition of human topoisomerase 2-alpha using supercoiled pBR322 plasmid DNA as substrate at 100 uM after 30 mins by agarose gel electrophoresis method relative to control
Give the value, in units of %, as a plain number.

Record for O=C1c2ccccc2-c2nc(-c3ccccc3)cc(-c3ccccc3O)c21 under target or system UniProt:P11388: inhibition reported as 23.8

Record for O=C1c2ccccc2-c2nc(-c3cccc(O)c3)cc(-c3ccccc3O)c21 under target or system UniProt:P11388: inhibition reported as 2.6

Record for Oc1cccc(-c2cc(-c3ccccc3)c3c(n2)-c2ccccc2C3O)c1 (stereo not given) under target or system UniProt:P11388: inhibition reported as 40.7

Record for O=C1c2ccccc2-c2nc(-c3cccc(O)c3)cc(-c3cccc(O)c3)c21 under target or system UniProt:P11388: inhibition reported as 68.9

Record for Oc1cccc(-c2cc(-c3cccc(O)c3)c3c(n2)-c2ccccc2C3O)c1 (stereo not given) under target or system UniProt:P11388: inhibition reported as 55.1
